Cited source: ChEMBL document CHEMBL1133775

// values below are reported IC50 ratio
biological target: Delta-type opioid receptor (Mus musculus) (UniProt P32300); assay: Ratio of the IC50 of delta receptor agonist, [D-Ala-2, D-Leu5]-enkephalin in the presence of compound in MVD divided by the control IC50.; format: functional
Sequence (P32300 whole entry): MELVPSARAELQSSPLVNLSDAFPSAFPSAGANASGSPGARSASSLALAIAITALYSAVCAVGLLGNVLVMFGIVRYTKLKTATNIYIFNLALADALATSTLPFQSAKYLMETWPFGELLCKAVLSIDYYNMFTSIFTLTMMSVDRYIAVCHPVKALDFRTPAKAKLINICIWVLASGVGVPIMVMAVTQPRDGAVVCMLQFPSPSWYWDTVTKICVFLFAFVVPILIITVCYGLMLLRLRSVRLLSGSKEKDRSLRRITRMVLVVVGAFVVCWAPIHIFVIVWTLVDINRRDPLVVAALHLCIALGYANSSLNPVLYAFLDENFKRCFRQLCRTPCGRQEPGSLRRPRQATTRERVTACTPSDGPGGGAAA
// return a plain number; no unit text

Some entries whose results are on file:
STRUCTURE: C[N+](C)(C)CCc1ccc2[nH]c3c(c2c1)C[C@@]1(O)C2Cc4ccc(O)c5c4[C@@]1(CCN2CC1CC1)[C@H]3O5
MEASURED RESULT: 2.5
//
STRUCTURE: CN(C)CCc1ccc2[nH]c3c(c2c1)C[C@@]1(O)C2Cc4ccc(O)c5c4[C@@]1(CCN2CC1CC1)[C@H]3O5
MEASURED RESULT: 1.8
//
STRUCTURE: NCc1ccc2[nH]c3c(c2c1)C[C@@]1(O)C2Cc4ccc(O)c5c4[C@@]1(CCN2CC1CC1)[C@H]3O5
MEASURED RESULT: 6.4
//
STRUCTURE: N=C(N)c1ccc2[nH]c3c(c2c1)C[C@@]1(O)C2Cc4ccc(O)c5c4[C@@]1(CCN2CC1CC1)[C@H]3O5
MEASURED RESULT: 0.3
//
STRUCTURE: CC(=N)Nc1ccc2[nH]c3c(c2c1)C[C@@]1(O)C2Cc4ccc(O)c5c4[C@@]1(CCN2CC1CC1)[C@H]3O5
MEASURED RESULT: 1.9

The value of IC50 ratio measured for the molecule N=C(N)/N=C(\N)Nc1ccc2[nH]c3c(c2c1)C[C@@]1(O)C2Cc4ccc(O)c5c4[C@@]1(CCN2CC1CC1)[C@H]3O5 turned out to be 0.41

// sample CSC(=N)Nc1ccc2[nH]c3c(c2c1)C[C@@]1(O)C2Cc4ccc(O)c5c4[C@@]1(CCN2CC1CC1)[C@H]3O5 , its IC50 ratio was 1.9

Per the records, this molecule ( CC(=N)NCc1ccc2[nH]c3c(c2c1)C[C@@]1(O)C2Cc4ccc(O)c5c4[C@@]1(CCN2CC1CC1)[C@H]3O5 ) has IC50 ratio equal to 0.88
